All figures here come from the Human Domainome abundance scans (Beltran et al. 2025).

B1: Ankyrin repeat and SAM domain-containing protein 6, residues 774 to 836; numbered along this chain, Q68DC2 (parent)
chain: DEDELTGILKKLSLEKYQPIFEEQEVDMEAFLTLTDGDLKELGIKTDGSRQQILAAISELNAG

Variants of: B1
procedureText: abundance fitness (aPCA) (normalised: wild type 0, dead -1); higher = more abundant; growth selection in yeast, the domain comes from the species named
experimentalConditions: Homo sapiens
outcomeMeasure: abundance fitness
Please give only the number in your answer, with no unit.

Find the measured abundance fitness of D36E and report it.
-0.051

Return abundance fitness (reported value) for this variant: D47M
-0.138

Kindly indicate its recorded abundance fitness. Item: L60S
-0.466

Return reported abundance fitness. Input variant: D3C
0.057

Output measured abundance fitness for this item: I20K
-0.104

For the variant T33F , report abundance fitness.
-0.642

Tell me its abundance fitness given K40A as the entry.
-0.121

Look up and report measured abundance fitness for this entry: E15R
-0.53

Check the records and state abundance fitness for Q51E
-0.128

Respond only with abundance fitness recorded for L9M
-0.193

Note down abundance fitness recorded for F21T
-0.589

Look up abundance fitness of D27V and report it.
-0.988

Hello, please tell me recorded abundance fitness for this one: K40V
0.044

For the variant D47R , give its reported abundance fitness.
-0.149

Supply recorded abundance fitness for L39A here.
-0.59

State, in one line, measured abundance fitness of D27E
-0.294

Give a short answer stating reported abundance fitness for A30C .
-0.02

Fill in reported abundance fitness for this entry: S13T
-0.127

Indicate its recorded abundance fitness; the variant in question is Q52L
-0.132

Give the measured abundance fitness for K16G
-0.135

Name the recorded abundance fitness of the item D38L in your answer.
-1.16

Give me measured abundance fitness, please, for this variant: D3R
-0.064

For the variant D27L , give its measured abundance fitness value.
-0.895

Output abundance fitness of Q52K
-0.095

Recall and state the measured abundance fitness for G43T .
-0.675

Give abundance fitness for the following variant: D38S
-0.232

Given the variant G37P , write its reported abundance fitness.
-0.035

Dear colleague, please send me the reported abundance fitness for T33N when you can.
-0.053

Could you please provide reported abundance fitness for S58T ? Thanks!
-0.064

Provide measured abundance fitness value, entry: P19G
-0.116

Tell us which abundance fitness value is on record for G63C
-0.111

Give abundance fitness for L5P
-0.559

Note down abundance fitness recorded for D36S
-0.392

Give the value of abundance fitness reported for the following: L54H
-0.439

Please give the documented abundance fitness of G63T
-0.105

Quote abundance fitness reported for L12D please.
-1.08

State its abundance fitness: L9E
-1.02

Supply measured abundance fitness of G37A in your reply.
0.004

Answer with reported abundance fitness of L5I
-0.05

Assign abundance fitness to the following record: E22H
-0.394

Give abundance fitness for I20F
-0.352

Look up and report measured abundance fitness for this entry: Q24M
-0.165

Identify measured abundance fitness associated with D38R
-0.074

Provide abundance fitness value for the following variant: A55V
-0.301

Name the recorded abundance fitness of the item T46K in your answer.
0.061

Give abundance fitness for the following variant: A62N
-0.07
